Let's look at some substances and their measured MBC Pseudomonas aeruginosa.
# System: Pseudomonas aeruginosa (ATCC 27853)
# ASSAY_EXPLANATION: Minimum bactericidal concentration (MBC) assay
# Type: cell-based
# MEASUREMENT_SETUP: Tables 11-21, no unit printed
# Experimental: First, each of Pseudomonas aeruginosa (ATCC 27853) and Staphylococcus aureus (ATCC 29213) was cultured in 3% (w/v) TSB (tryptic soy broth) liquid medium at 37° C. and 200 rpm for 4 hours, and then further cultured under the same conditions for 3 hours to a concentration of 5×10^6 CFU/ml. Strain solutions were prepared by diluting each of the further cultured strains with SP (sodium phosphate; 10 mM sodium phosphate, 1% TSB) buffer to a final concentration of 2×10^5 CFU/ml. […]
No end group written: not given here.

| SUBSTANCE | QUALIFIER_SYMBOL | MBC Pseudomonas aeruginosa (µg/mL) |
| --- | --- | --- |
| KTMMQSGGTFGTFMAAGMGIR [KU-5878-I73A] | > | 300 |
| KTMMQSGGTFGTFMAIGMAIR [KU-5878-G76A] | > | 300 |
| KKMMKK-GKFGTF-AIG-GIR [d 64G 71M 75M] | = | 2 |
| KKMMKK-GKFGTFMAIGMGIR [5878-K4-d64G(=d65G)] | = | 2 |
| KKMMKKGGKFG-FMAIGMGIR [Peptide 5878-K4-d69T] | = | 4 |
| KKMMKKGGKF-TFMAIGMGIR [Peptide 5878-K4-d68G] | = | 4 |
| KKMMKKGGKFGTFMA-GMGIR [Peptide 5878-K4-d73I] | = | 300 |
| KKMMKKGGKFGTFMAIG-GIR [Peptide 5878-K4-d75M] | = | 2 |
| -KMMKKGGKFGTF-AIGMGIR [Peptide K4-d58K-d71M] | = | 10 |
| KTMMQSGGTFGTFMAIGMG-R [Peptide 5878-d77I] | > | 300 |
| KTMMRSGGTFGTFMAIGMGIR [KU-5878-Q62R] | = | 80 |
| KSMMQSGGTFGTFMAIGMGIR [KU-5878-T59S] | > | 300 |
| KTMMQSGGTFGTFM-IGMGIR [Peptide 5878-d72A] | = | 150 |
| KTMMQTGGTFGTFMAIGMGIR [KU-5878-S63T] | > | 300 |
| KTMMQSGG-FGTFMAIGMGIR [Peptide 5878-d66T] | = | 90 |
| KKMMKKGGKFGTFM-IGMGIR [Peptide 5878-K4-d72A] | = | 2 |
| KKMMKKGG-FGTFMAIGMGIR [Peptide 5878-K4-d66K] | = | 4 |
| KKMMKKGGK-GTFMAIGMGIR [Peptide 5878-K4-d67F] | = | 4 |
| KTMMQSGGTFGTFMAIGMGIA [KU-5878-R78A] | > | 300 |
| KT-MQS-GTFGTF--IG-GIR [5878-d60M, d64G, d71M, d72A, d75M] | = | 200 |
| KTMMQSGGTFGTFMAIGMGI [KU-5877] | = | 300 |
| -K-MKKGGKFGTFMAIG-GIR [d 58K 60M 75M] | = | 6 |
| KTMMQSGGTFGT-MAIGMGIR [Peptide 5878-d70F] | = | 200 |
| KTMMQSGGSFGTFMAIGMGIR [KU-5878-T66S] | > | 300 |
| KTMMQSGGTFGTFMAIGMGIK [KU-5878-R78K] | > | 300 |
| KT-MQS-GTFGTFM-IG-GIR [5878-d60M, d64G, d72A, d75M] | = | 120 |
| KKMMKKGGKFGTFM-IG-GIR [Peptide K4-d72A-d75M] | = | 200 |
| KTAMQSGGTFGTFMAIGMGIR [KU-5878-M60A] | > | 300 |
| KT-MQSGGTFGTFMAIGMGIR [Peptide 5878-d60M] | = | 90 |
| KTMMQS-GTFGTFMAIGMGIR [Peptide 5878-d64G] | = | 100 |
